Values were extracted from paper PMC12416549.

Overview of recorded apparent Kd (screen) for various binders
# TESTED ON: T1, TNFR1 (Homo sapiens, UniProt P19438)
# T1 chain: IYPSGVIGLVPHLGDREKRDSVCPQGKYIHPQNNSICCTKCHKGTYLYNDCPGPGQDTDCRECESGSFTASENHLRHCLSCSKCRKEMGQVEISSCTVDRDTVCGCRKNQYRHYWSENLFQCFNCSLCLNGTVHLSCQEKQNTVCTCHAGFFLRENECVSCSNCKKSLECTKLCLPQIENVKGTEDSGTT
# EXPERIMENT DESCRIPTION: yeast display SC50

Y22A (designed binder) MTLQELLREEALRRAEAEAFRAALELLAEKFPEQKEYLLDLAEEIESQIRSLSGVDVEDVRKFLDKEWAWVKELLAEHPAELAEVEAARAARLAELRAEVEAKVAA :: 0.79 nM

**Q:** Data request, read-out apparent Kd (screen), for A23W (designed binder) MTLQELLREEALRRAEAEAFRYWLELLAEKFPEQKEYLLDLAEEIESQIRSLSGVDVEDVRKFLDKEWAWVKELLAEHPAELAEVEAARAARLAELRAEVEAKVAA
**A:** 0.869 nM
